Data origin, for the record: ChEMBL document CHEMBL4828720

system_tested: Proteasome subunit beta type-8 (Homo sapiens, UniProt P28062)
experiment_notes: Inhibition of human 20S proteasome LMP7 using Ac-ANW-AMC as fluorogenic substrate measured every minute for 1 hr by fluorescence assay

# record_smiles, IC50
measured = [
    ("CC(C)C[C@H](NC(=O)[C@@H]1COCCCCCC(=O)N2CCCC[C@H]2C(=O)N1)C(=O)[C@@]1(C)CO1", "> 10 µM"),
    ("CC(C)C[C@H](NC(=O)[C@@H]1COCCCCCC(=O)NCC(=O)N2CCC[C@H]2C(=O)N1)C(=O)[C@@]1(C)CO1", "> 10 µM"),
    ("C[C@]1(C(=O)[C@H](CC2CCCCC2)NC(=O)[C@@H]2Cc3ccc(cc3)OCCCCCCCC(=O)N3CCC[C@H]3C(=O)N2)CO1", "2.69 µM"),
    ("CC(C)C[C@H](NC(=O)[C@@H]1COCCCCCCC(=O)N2CCC[C@H]2C(=O)N1)C(=O)[C@@]1(C)CO1", "> 10 µM"),
    ("CC(C)C[C@H](NC(=O)[C@@H]1COCCCCCC(=O)N2CCC[C@H]2C(=O)N1)C(=O)[C@@]1(C)CO1", "> 10 µM"),
    ("CC(C)C[C@H](NC(=O)[C@@H]1Cc2ccc(cc2)OCCCCCCC(=O)N2CCC[C@H]2C(=O)N1)C(=O)[C@@]1(C)CO1", "> 10 µM"),
    ("CC(C)C[C@H](NC(=O)[C@@H]1Cc2ccc(cc2)OCCCCCCCCC(=O)N2CCC[C@H]2C(=O)N1)C(=O)[C@@]1(C)CO1", "0.342 µM"),
]

###

system_tested: Proteasome subunit beta type-8 (Homo sapiens, UniProt P28062)
Sequence (P28062 whole entry): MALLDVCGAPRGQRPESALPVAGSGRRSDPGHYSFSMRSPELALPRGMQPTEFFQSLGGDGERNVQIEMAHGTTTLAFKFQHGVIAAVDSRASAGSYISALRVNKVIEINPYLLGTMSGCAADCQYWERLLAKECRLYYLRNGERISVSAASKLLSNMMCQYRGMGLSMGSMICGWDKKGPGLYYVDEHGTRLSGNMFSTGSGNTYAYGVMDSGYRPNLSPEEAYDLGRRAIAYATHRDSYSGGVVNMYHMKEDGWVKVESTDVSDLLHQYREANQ
experiment_notes: Inhibition of human 20S proteasome LMP7 using Ac-ANW-AMC as fluorogenic substrate measured every minute for 1 hr by fluorescence assay
pIC50: −log10 of the molar value.
Listing of entries alongside the reported pIC50.
measured_quantity: pIC50

# record_smiles, system_tested, measured_quantity, test_result
measured = [
    ("CC(C)C[C@H](NC(=O)[C@@H]1COCCCCCC(=O)N2C[C@H](F)C[C@H]2C(=O)N1)C(=O)[C@@]1(C)CO1", "Proteasome subunit beta type-8 (Homo sapiens, UniProt P28062)", "pIC50", "< 5.00"),
    ("CC(C)C[C@H](NC(=O)[C@@H]1COCCCCCC(=O)N2CC[C@H]2C(=O)N1)C(=O)[C@@]1(C)CO1", "Proteasome subunit beta type-8 (Homo sapiens, UniProt P28062)", "pIC50", "< 5.00"),
    ("C[C@]1(C(=O)[C@H](Cc2ccccc2)NC(=O)[C@@H]2Cc3ccc(cc3)OCCCCCCCC(=O)N3CCC[C@H]3C(=O)N2)CO1", "Proteasome subunit beta type-8 (Homo sapiens, UniProt P28062)", "pIC50", 6.40),
]

###

Each entry below lists one item and its recorded IC50 value.
system_tested: Proteasome subunit beta type-9 (Homo sapiens, UniProt P28065)
experiment_notes: Inhibition of human 20S proteasome LMP2 activity in human RPMI-8226 cells using Ac-PAL-AMC as fluorogenic substrate incubated for 72 hrs by fluorescence assay
Assay type: cell-based
measured_quantity: IC50 (nM)

# record_smiles, measured_quantity, op, test_result
data = [
    ("CC(C)C[C@H](NC(=O)[C@@H]1COCCCCCC(=O)N2CCC[C@H]2C(=O)N1)C(=O)[C@@]1(C)CO1", "IC50", "=", 35.8),
    ("CC(C)C[C@H](NC(=O)[C@@H]1Cc2ccc(cc2)OCCCCCCCC(=O)N2CCC[C@H]2C(=O)N1)C(=O)[C@@]1(C)CO1", "IC50", "=", 33.9),
    ("CC(C)C[C@H](NC(=O)[C@@H]1COCCCCCC(=O)NCC(=O)N2CCC[C@H]2C(=O)N1)C(=O)[C@@]1(C)CO1", "IC50", ">", 10000),
    ("C[C@]1(C(=O)[C@H](Cc2ccccc2)NC(=O)[C@@H]2Cc3ccc(cc3)OCCCCCCCC(=O)N3CCC[C@H]3C(=O)N2)CO1", "IC50", "=", 32.7),
    ("CC(C)C[C@H](NC(=O)[C@@H]1COCCCCCCC(=O)NCC(=O)N2CCC[C@H]2C(=O)N1)C(=O)[C@@]1(C)CO1", "IC50", ">", 10000),
]

###

system_tested: Proteasome subunit beta type-9 (Homo sapiens, UniProt P28065)
Sequence (P28065 whole entry): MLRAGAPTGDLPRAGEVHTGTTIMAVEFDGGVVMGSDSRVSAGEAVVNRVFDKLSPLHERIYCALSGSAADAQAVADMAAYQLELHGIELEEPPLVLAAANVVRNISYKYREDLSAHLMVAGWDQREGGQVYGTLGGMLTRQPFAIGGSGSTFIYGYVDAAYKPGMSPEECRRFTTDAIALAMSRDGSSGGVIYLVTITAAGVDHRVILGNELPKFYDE
experiment_notes: Inhibition of human 20S proteasome LMP2 using Ac-PAL-AMC as fluorogenic substrate measured every minute for 1 hr by fluorescence assay
pIC50: −log10 of the molar value.
measured_quantity: pIC50

# record_smiles, system_tested, test_result
data = [
    ("CC(C)C[C@H](NC(=O)[C@@H]1COCCCCCC(=O)NCC(=O)N2CCC[C@H]2C(=O)N1)C(=O)[C@@]1(C)CO1", "Proteasome subunit beta type-9 (Homo sapiens, UniProt P28065)", 7.16),
    ("CC(C)C[C@H](NC(=O)[C@@H]1Cc2ccc(cc2)OCCCCCCC(=O)N2CCC[C@H]2C(=O)N1)C(=O)[C@@]1(C)CO1", "Proteasome subunit beta type-9 (Homo sapiens, UniProt P28065)", 6.37),
    ("CC(C)C[C@H](NC(=O)[C@@H]1COCCCCCC(=O)N2CCC[C@@]2(C)C(=O)N1)C(=O)[C@@]1(C)CO1", "Proteasome subunit beta type-9 (Homo sapiens, UniProt P28065)", 5.34),
    ("CC(C)C[C@H](NC(=O)[C@@H]1COCCCCCC(=O)N2CC[C@H]2C(=O)N1)C(=O)[C@@]1(C)CO1", "Proteasome subunit beta type-9 (Homo sapiens, UniProt P28065)", 6.58),
    ("CC(C)C[C@H](NC(=O)[C@@H]1COCCCCCCC(=O)NCC(=O)N2CCC[C@H]2C(=O)N1)C(=O)[C@@]1(C)CO1", "Proteasome subunit beta type-9 (Homo sapiens, UniProt P28065)", 7.18),
    ("CC(C)C[C@H](NC(=O)[C@@H]1Cc2ccc(cc2)OCCCCCCCC(=O)N2CCC[C@H]2C(=O)N1)C(=O)[C@@]1(C)CO1", "Proteasome subunit beta type-9 (Homo sapiens, UniProt P28065)", 6.89),
    ("C[C@]1(C(=O)[C@H](Cc2ccccc2)NC(=O)[C@@H]2Cc3ccc(cc3)OCCCCCCCC(=O)N3CCC[C@H]3C(=O)N2)CO1", "Proteasome subunit beta type-9 (Homo sapiens, UniProt P28065)", 6.73),
    ("C[C@]1(C(=O)[C@H](Cc2ccccc2)NC(=O)[C@@H]2COCCCCCC(=O)N3CCC[C@H]3C(=O)N2)CO1", "Proteasome subunit beta type-9 (Homo sapiens, UniProt P28065)", 6.60),
    ("C[C@]1(C(=O)[C@H](CC2CCCCC2)NC(=O)[C@@H]2COCCCCCC(=O)N3CCC[C@H]3C(=O)N2)CO1", "Proteasome subunit beta type-9 (Homo sapiens, UniProt P28065)", 6.28),
    ("CC(C)C[C@H](NC(=O)[C@@H]1COCCCCCC(=O)N2CC(F)(F)C[C@H]2C(=O)N1)C(=O)[C@@]1(C)CO1", "Proteasome subunit beta type-9 (Homo sapiens, UniProt P28065)", 6.62),
    ("CC(C)C[C@H](NC(=O)[C@@H]1COCCCCCC(=O)N2C[C@H](F)C[C@H]2C(=O)N1)C(=O)[C@@]1(C)CO1", "Proteasome subunit beta type-9 (Homo sapiens, UniProt P28065)", 5.67),
    ("CC(C)C[C@H](NC(=O)[C@@H]1COCCCCCCC(=O)N2CCC[C@H]2C(=O)N1)C(=O)[C@@]1(C)CO1", "Proteasome subunit beta type-9 (Homo sapiens, UniProt P28065)", 6.25),
    ("CC(C)C[C@H](NC(=O)[C@@H]1COCCCCCC(=O)N2CCCC[C@H]2C(=O)N1)C(=O)[C@@]1(C)CO1", "Proteasome subunit beta type-9 (Homo sapiens, UniProt P28065)", 5.90),
    ("C[C@]1(C(=O)[C@H](CC2CCCCC2)NC(=O)[C@@H]2Cc3ccc(cc3)OCCCCCCCC(=O)N3CCC[C@H]3C(=O)N2)CO1", "Proteasome subunit beta type-9 (Homo sapiens, UniProt P28065)", 6.78),
    ("CC(C)C[C@H](NC(=O)[C@@H]1COCCCCCCCC(=O)N2CCC[C@H]2C(=O)N1)C(=O)[C@@]1(C)CO1", "Proteasome subunit beta type-9 (Homo sapiens, UniProt P28065)", 6.80),
    ("CC(C)C[C@H](NC(=O)[C@@H]1COCCCCCC(=O)N2CCC[C@H]2C(=O)N1)C(=O)[C@@]1(C)CO1", "Proteasome subunit beta type-9 (Homo sapiens, UniProt P28065)", 6.38),
    ("CC(C)C[C@H](NC(=O)[C@@H]1Cc2ccc(cc2)OCCCCCCCCC(=O)N2CCC[C@H]2C(=O)N1)C(=O)[C@@]1(C)CO1", "Proteasome subunit beta type-9 (Homo sapiens, UniProt P28065)", 6.38),
]
